Target: T1, human LAG-3 expressed on cells (human, UniProt P18627 23-525)
T1 construct: whole, on cells; Treated as one protein; the host cell is named under assay; also called LAG-3-expressing CHO cells; LAG-3-transfected CHO cells
T1 sequence (looked up): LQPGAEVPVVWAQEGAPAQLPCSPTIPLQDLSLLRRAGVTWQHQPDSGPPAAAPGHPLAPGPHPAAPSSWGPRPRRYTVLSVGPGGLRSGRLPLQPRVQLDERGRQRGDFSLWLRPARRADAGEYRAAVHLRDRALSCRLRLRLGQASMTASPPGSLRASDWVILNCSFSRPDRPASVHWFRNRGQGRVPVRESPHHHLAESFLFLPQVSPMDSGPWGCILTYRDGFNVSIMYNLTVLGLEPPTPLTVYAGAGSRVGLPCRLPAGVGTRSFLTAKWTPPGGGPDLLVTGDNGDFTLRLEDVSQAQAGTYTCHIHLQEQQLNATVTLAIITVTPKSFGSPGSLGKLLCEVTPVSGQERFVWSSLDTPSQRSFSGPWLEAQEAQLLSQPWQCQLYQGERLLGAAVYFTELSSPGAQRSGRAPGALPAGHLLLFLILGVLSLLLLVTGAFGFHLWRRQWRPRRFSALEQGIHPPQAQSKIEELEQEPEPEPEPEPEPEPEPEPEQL
Test: FACS competition: serial dilutions of the test mAb against a constant concentration of FITC-labeled murine BAP050 on LAG-3-expressing CHO cells; MFI of bound labelled mAb

{"Binder": "BAP050-hum11-Ser (antibody, human IgG4 S228P, kappa, V domains shown, C84S in VHFW3 of BAP050-hum11; IgG4(S228P)/kappa; also called clone No. 11S) VH: QVQLVQSGAEVKKPGASVKVSCKASGFTLTNYGMNWVRQARGQRLEWIGWINTDTGEPTYADDFKGRFVFSLDTSVSTAYLQISSLKAEDTAVYYCARNPPYYYGTNNAEAMDYWGQGTTVTVSS VL: DIQMTQSPSSLSASVGDRVTITCSSSQDISNYLNWYLQKPGQSPQLLIYYTSTLHLGVPSRFSGSGSGTEFTLTISSLQPDDFATYYCQQYYNLPWTFGQGTKVEIKR", "binding result": "binds"}
{"Binder": "BAP050-hum13-Ser (antibody, human IgG4 S228P, kappa, V domains shown, C84S in VHFW3 of BAP050-hum13; IgG4(S228P)/kappa; also called clone No. 13S (printed 135); huBAP050(Ser) clone) VH: QVQLVQSGAEVKKPGASVKVSCKASGFTLTNYGMNWVRQAPGQGLEWMGWINTDTGEPTYADDFKGRFVFSLDTSVSTAYLQISSLKAEDTAVYYCARNPPYYYGTNNAEAMDYWGQGTTVTVSS VL: DIQMTQSPSSLSASVGDRVTITCSSSQDISNYLNWYQQKPGKAPKLLIYYTSTLHLGIPPRFSGSGYGTDFTLTINNIESEDAAYYFCQQYYNLPWTFGQGTKVEIKR", "binding result": "binds"}
{"Binder": "BAP050-hum02-Ser (antibody, human IgG4 S228P, kappa, V domains shown, C84S in VHFW3 of BAP050-hum02; IgG4(S228P)/kappa; also called clone No. 2S; huBAP050(Ser) clone) VH: EVQLVQSGAEVKKPGATVKISCKVSGFTLTNYGMNWVRQAPGQGLEWMGWINTDTGEPTYADDFKGRFVFSLDTSVSTAYLQISSLKAEDTAVYYCARNPPYYYGTNNAEAMDYWGQGTTVTVSS VL: DIQMTQSPSSLSASVGDRVTITCSSSQDISNYLNWYQQKPGKAPKLLIYYTSTLHLGIPPRFSGSGYGTDFTLTINNIESEDAAYYFCQQYYNLPWTFGQGTKVEIKR", "binding result": "binds"}

Source: patent US20180340025A1
